Cited source: ChEMBL document CHEMBL1201862

System: UACC-62
Test: NCI tumour cell line growth inhibition, 48 h
Activity calls are given as the source filed them. Rule as the data show it: active = GI50 up to about 1.1 µM and inactive = higher.
Lab note: assign the record to one of 1.0 for active, 0.0 for inactive

As a guide, the following entries are already answered.
COMPOUND: O=c1oc2ccc(Cl)cc2c2ccccc12
CLASS_LABEL: 0.0
--
COMPOUND: CC1=C(/C=C/C(C)=C/C=C/C(C)=C/C(=O)OCC2OC(n3cc(F)c(=O)[nH]c3=O)CC2OC(=O)/C=C(C)/C=C/C=C(C)/C=C/C2=C(C)CCCC2(C)C)C(C)(C)CCC1 (stereo not given)
CLASS_LABEL: 1.0
--
COMPOUND: COc1cc(C(=O)Nc2c3ccccc3nc3ccccc23)cc(OC)c1OC
CLASS_LABEL: 0.0
--
COMPOUND: O=[N+]([O-])c1ccc(NC2OCC(O)C(O)C2O)cc1 (stereo not given)
CLASS_LABEL: 0.0
--
COMPOUND: NC(Cc1ccc(N(CCCl)CCCl)cc1)C(=O)NC(CCC(=O)O)C(=O)O (stereo not given)
CLASS_LABEL: 0.0

Tell me the recorded outcome of this test for C\C(=N/N=C1/C(=C\N(C)C)C(=O)NC(=O)N1C)c1ccc(Cl)cc1 .
0.0

Which result was noted for this compound in the test: COc1ccc(/C=C2\OC(=O)C(Cl)=C2c2ccc(OC)c(Cl)c2)cc1
0.0

What was the test verdict on O=C(O)c1ccccc1.[Ag] ?
0.0

Entry O=C(CCc1cc(-c2ccc(F)cc2)n[nH]1)N(Cc1ccccc1)Cc1ccccc1 : call = ?
0.0

Could you kindly confirm the outcome this assay logged for CN(NC(=O)c1cccs1)C1=NCCCCN1 ?
0.0

====

Test system: HOP-62
Test: NCI tumour cell line growth inhibition, 48 h
The source made the active and inactive calls. Cut-off read from the data, not from the text of the source: active = GI50 up to about 1.1 µM and inactive = higher.
REPORTED_PROPERTY: GI50

Example compounds with recorded GI50:
COMPOUND: CCC1C(c2cc(OC)c(OC)c(OC)c2)c2cc3c(cc2OC1N1CCCC1)OCO3 (stereo not given)
ASSAYED_TARGET: HOP-62
GI50: 2.82 µM (inactive)

COMPOUND: CCN(CC)CCN(C)CC(C)(C)C(=O)/C=C/c1ccccc1
ASSAYED_TARGET: HOP-62
GI50: 22.1 µM (inactive)

COMPOUND: Cc1ccc(/N=N/C(=N/c2ccccc2)c2ccc(N(CCC#N)CCC#N)cc2)cc1
ASSAYED_TARGET: HOP-62
GI50: 30.1 µM (inactive)

// for each compound in input: emit GI50
1. C\C(=N/N=C1/C(=C\N(C)C)C(=O)NC(=O)N1C)c1ccc(Cl)cc1
2. c1ccc(C(CCN2CC3CCC(CC3)C2)c2ccccc2)cc1
3. C[C@@]12C=CC3C/C(=N\C(N)=S)C=C(CCCC4OCCO4)[C@]3(CC1)C2 (stereo not given in full)
4. CCOC(=O)C1N(S(=O)(=O)c2ccc(C)cc2)CCC12C(c1ccc(OC)c(OC)c1)=Nc1ccccc12 (stereo not given)
5. O=C1CCC(CCc2nc3ccccc3[nH]2)(c2ccccc2)C(=O)N1 (stereo not given)
6. CCOC(=O)CC(=O)ON(C)C(C)=O
7. Cc1cccc(NC(=O)c2cccc([N+](=O)[O-])c2O)c1C

["> 100 µM (inactive)", "27.5 µM (inactive)", "29.5 µM (inactive)", "> 100 µM (inactive)", "> 100 µM (inactive)", "> 100 µM (inactive)", "17.8 µM (inactive)"]
